Assay: Hydrophobicity, log P of the compound
Type: physicochemical
Settings: octanol/water
attribute-measured: logP

>  <smiles-code>
CC(C)(C)n1ncc(OCc2nnc(-c3ccccc3)o2)c(Cl)c1=O

>  <logP>
2.95

$$$$
>  <smiles-code>
CC(C)(C)n1ncc(OCc2nnc(-c3ccccc3Cl)o2)c(Cl)c1=O

>  <logP>
3.19

$$$$
>  <smiles-code>
CC(C)(C)n1ncc(OCc2nnc(-c3cccc(F)c3)o2)c(Cl)c1=O

>  <logP>
2.69

$$$$
>  <smiles-code>
CC(C)(C)n1ncc(OCc2nnc(-c3ccc(Cl)cc3)o2)c(Cl)c1=O

>  <logP>
3.09

$$$$
>  <smiles-code>
CC(C)(C)n1ncc(OCc2nnc(-c3cc(F)c(F)c(F)c3F)o2)c(Cl)c1=O

>  <logP>
3.18

$$$$
>  <smiles-code>
CC(C)(C)n1ncc(OCc2nnc(-c3ccc(Cl)cc3F)o2)c(Cl)c1=O

>  <logP>
3.23

$$$$
>  <smiles-code>
CC(C)(C)n1ncc(OCc2nnc(-c3c(F)c(F)c(F)c(F)c3F)o2)c(Cl)c1=O

>  <logP>
3.06

$$$$
>  <smiles-code>
CC(C)(C)n1ncc(OCc2nnc(-c3ccccc3F)o2)c(Cl)c1=O

>  <logP>
2.89

$$$$
>  <smiles-code>
CC(C)(C)n1ncc(OCc2nnc(-c3ccc(C(F)(F)F)cc3)o2)c(Cl)c1=O

>  <logP>
3.66

$$$$
>  <smiles-code>
CC(C)(C)n1ncc(OCc2nnc(-c3ccc(F)cc3)o2)c(Cl)c1=O

>  <logP>
2.69

$$$$
>  <smiles-code>
COc1ccc(-c2nnc(COc3cnn(C(C)(C)C)c(=O)c3Cl)o2)cc1

>  <logP>
3.52

$$$$
>  <smiles-code>
CC(C)(C)n1ncc(OCc2nnc(-c3cc(F)c(F)cc3F)o2)c(Cl)c1=O

>  <logP>
2.96

$$$$
>  <smiles-code>
CC(C)(C)n1ncc(OCc2nnc(-c3ccc(Cl)cc3Cl)o2)c(Cl)c1=O

>  <logP>
3.52

$$$$
>  <smiles-code>
CCc1ccc(-c2nnc(COc3cnn(C(C)(C)C)c(=O)c3Cl)o2)cc1

>  <logP>
3.52

$$$$
>  <smiles-code>
Cc1cccc(-c2nnc(COc3cnn(C(C)(C)C)c(=O)c3Cl)o2)c1

>  <logP>
3.02

$$$$
>  <smiles-code>
Cc1ccc(-c2nnc(COc3cnn(C(C)(C)C)c(=O)c3Cl)o2)cc1

>  <logP>
3.01

$$$$
>  <smiles-code>
CC(C)(C)n1ncc(OCc2nnc(-c3c(F)cccc3F)o2)c(Cl)c1=O

>  <logP>
2.75

$$$$
>  <smiles-code>
CC(C)(C)n1ncc(OCc2nnc(-c3ccc(Br)cc3)o2)c(Cl)c1=O

>  <logP>
3.21

$$$$
>  <smiles-code>
CC(C)(C)n1ncc(OCc2nnc(-c3cc(F)c(Cl)cc3Cl)o2)c(Cl)c1=O

>  <logP>
3.36

$$$$

FYI, the data here is from ChEMBL document CHEMBL3046697.
